From: patent US12077503B2

# Test system: barnyardgrass (Echinochloa crus-galli)
# assayExplanation: Test G Post-Emergence Protocol
# Assay type: in vivo
# condition: Echinochloa crus-galli, post-emergence, 312 h, 15.625 g ai/ha, evaluated after 13 days (100=total damage to plant; 0=no damage to plant), read-out: Barnyardgrass damage rating
measuredParameter: pest or weed control at 15.625 g/ha (%)
// units = %; emit number, no label

Would you please look over these solved cases?
molecule	pest or weed control at 15.625 g/ha [%]
Cc1ccc(NC(=O)[C@H]2C(=O)N(C)C[C@@H]2c2ccc(C(F)(F)F)cc2)c(C)c1 (racemic)	0
COc1cc(F)cc(C2CN(C)C(=O)C2C(=O)Nc2cccc(F)c2F)c1 (stereo not drawn)	60
CN1CC(c2ccc(C(F)(F)F)c(C(F)(F)F)c2)C(C(=O)Nc2cccc(F)c2F)C1=O (stereo not drawn)	40
Cc1c(F)cccc1NC(=O)[C@@H]1C(=O)N(C)C[C@H]1c1cccc(C(C)(C)F)c1 (racemic)	0
CN1C[C@H](c2ccc(C(F)(F)F)cc2)[C@@H](C(=O)Nc2cccnc2F)C1=O	80
Cc1c(Cl)ccc([C@@H]2CN(C)C(=O)[C@H]2C(=O)Nc2cccc(F)c2F)c1F (racemic)	40
CN1C[C@@H](c2cncc(Cl)c2)[C@H](C(=O)Nc2cccc(F)c2F)C1=O (racemic)	0
CN1C[C@H](c2cccc(C(F)(F)F)c2)[C@@H](C(=O)Nc2cnccc2C#N)C1=O (racemic)	0
COc1cc(C2CN(C)C(=O)C2C(=O)Nc2cccc(F)c2F)cc(C(F)(F)F)c1F (stereo not drawn)	10
CN1C[C@H](c2ccc(C(F)(F)F)cc2)[C@@H](C(=O)Nc2cnccc2O)C1=O (racemic)	0

Asked: State its pest or weed control at 15.625 g/ha on barnyardgrass (Echinochloa crus-galli): CN1C[C@@H](c2ccc(C(F)(F)F)cc2)[C@H](C(=O)Nc2ccccc2C#N)C1=O (racemic)
Given back: 10

Asked: Query for barnyardgrass (Echinochloa crus-galli): what pest or weed control at 15.625 g/ha does the record show for CN1C[C@@H](c2ccc(C(F)(F)F)cc2)[C@H](C(=O)Nc2cc(C(C)(C)C)[nH]n2)C1=O (racemic) ?
Given back: 0

Asked: Recall the recorded pest or weed control at 15.625 g/ha for CN1C[C@@H](c2cnc(Cl)c(F)c2)[C@H](C(=O)Nc2cccc(F)c2F)C1=O (racemic) with barnyardgrass (Echinochloa crus-galli) and state it.
Given back: 40

Asked: pest or weed control at 15.625 g/ha of CN1C[C@@H](c2ccc(C(F)(F)F)cc2)[C@H](C(=O)Nc2cc(O)nc(C(F)(F)F)n2)C1=O (racemic) on barnyardgrass (Echinochloa crus-galli)?
Given back: 0

Asked: Which pest or weed control at 15.625 g/ha is reported with barnyardgrass (Echinochloa crus-galli) for this entry: CN1C[C@@H](c2ccc(C(F)(F)F)nc2)[C@H](C(=O)Nc2ccccc2S(C)(=O)=O)C1=O (racemic) ?
Given back: 0

====

# Tested on: ryegrass, Italian (Italian ryegrass, Lolium multiflorum)
# assayExplanation: Test A preemergence
# Assay type: in vivo
# condition: Lolium multiflorum, pre-emergence, 240 h, 125 g ai/ha, preemergence; visual rating after approx. 10 d; 0 to 100 scale where 0 is no effect and 100 is complete control; read-out: Plant response rating, Ryegrass, Italian
measuredParameter: pest or weed control at 125 g/ha (%)
Hi! Could you send only the number? It should be in %, unit omitted.

molecule	unitInfo	readoutNumber
O=C1NC[C@H](c2ccc3c(c2)OCO3)[C@H]1C(=O)Nc1cccc(F)c1F [Compound 731]	%	20
CCc1ccc([C@H]2CNC(=S)[C@@H]2C(=O)Nc2cccc(F)c2F)cc1 [Compound 762]	%	20
CC(F)(F)c1cccc([C@H]2CNC(=O)[C@@H]2C(=O)Nc2ccc(F)cc2F)c1 [Compound 781]	%	20

For the next question, use this molecule.
Asked: Which pest or weed control at 125 g/ha value belongs to O=C1NC[C@H](c2ccc(C(F)(F)F)cc2)[C@H]1C(=O)Nc1ccccc1C1CC1 [Compound 746] ?
Given back: 0

====

# Tested on: ryegrass, Italian (Italian ryegrass, Lolium multiflorum)
# assayExplanation: Test A postemergence
# Type: in vivo
# condition: 125 g ai/ha, postemergence; visual rating after approx. 10 d, 0 to 100 scale (0 no effect, 100 complete control)
Item-by-item account of Plant response rating, Ryegrass, Italian
// no unit string in output, number only

Asked: What value of measured Plant response rating, Ryegrass, Italian is listed for O=C(Nc1ccccc1F)C1C(=O)N(c2ccc([N+](=O)[O-])cc2)CC1c1cccc(C(F)(F)F)c1 (stereo not shown) [Compound 602] ?
Given back: 0

Asked: Need Plant response rating, Ryegrass, Italian of O=C1NCC(c2csc(Br)c2)C1C(=O)Nc1ccccc1F (stereo not shown) [Compound 648] , thanks.
Given back: 30

Asked: Entry under review: CC(C)Oc1cccc(C2CN(C)C(=O)C2C(=O)Nc2ccccc2S(C)(=O)=O)c1 (stereo not shown) [Compound 653] . Reported Plant response rating, Ryegrass, Italian?
Given back: 40

Asked: Field request: Plant response rating, Ryegrass, Italian | item: Cc1ccc(C2CN(C)C(=O)C2C(=O)Nc2ccccc2C(F)(F)F)cc1 (stereo not shown) [Compound 665]
Given back: 30

====

Catalogue of compounds with associated pest or weed control at 31 g/ha
# Tested on: barnyardgrass (Echinochloa crus-galli)
# assayExplanation: Test A postemergence
# Format: in vivo
# condition: Echinochloa crus-galli, post-emergence, 240 h, Postemergence, 31 g ai/ha; visual injury after approx. 10 d; 0 to 100 scale, 0 no effect, 100 complete control; read-out: Plant response rating, Barnyardgrass
Give a bare numeral; the unit % is implied.

Reference set, count: 3
compound	testedTarget	measuredParameter	readoutNumber
CC(C)=CC1CNC(=O)C1C(=O)Nc1cccc(F)c1F (centres unmarked) [Compound 1012]	barnyardgrass (Echinochloa crus-galli)	pest or weed control at 31 g/ha	0
CN1C[C@H](c2cccc(C(F)(F)F)c2)[C@@H](C(=O)Nc2cnccc2C(F)(F)F)C1=O [Compound 1066]	barnyardgrass (Echinochloa crus-galli)	pest or weed control at 31 g/ha	50
CN1C[C@H](c2csc3c2CCC3)[C@@H](C(=O)Nc2ccc(F)c(F)c2F)C1=O [Compound 1081]	barnyardgrass (Echinochloa crus-galli)	pest or weed control at 31 g/ha	30

Asked: Can you look up the measured pest or weed control at 31 g/ha of CN1C[C@H](c2cc(F)cc(C(F)(F)F)c2)[C@@H](C(=O)Nc2cccnc2F)C1=O [Compound 1176] for me?
Given back: 80

Asked: Data request, read-out pest or weed control at 31 g/ha, for CN1C[C@H](c2ccc(C(F)(F)F)cc2)[C@@H](C(=O)Nc2cnccc2C(F)(F)F)C1=O [Compound 1065]
Given back: 0

Asked: Form field: reported pest or weed control at 31 g/ha of COc1cccc([C@H]2CN(C)C(=O)[C@@H]2C(=O)Nc2cccc(F)c2F)c1F [Compound 1072]
Given back: 90

Asked: Which pest or weed control at 31 g/ha reading was recorded for the compound CON1CC[C@H](c2ccc(C(F)(F)F)cc2)[C@@H](C(=O)Nc2ccc(F)c(F)c2F)C1=O [Compound 1107] ?
Given back: 0

Asked: Record request: pest or weed control at 31 g/ha value, item CN1C[C@H](c2csc3c2CCCC3)[C@@H](C(=O)Nc2ccc(F)c(F)c2F)C1=O [Compound 1079]
Given back: 20

====

# Tested on: ryegrass, Italian (Italian ryegrass, Lolium multiflorum)
# assayExplanation: Test A postemergence
# Format: in vivo
# condition: Lolium multiflorum, post-emergence, 240 h, 125 g ai/ha, postemergence, visual injury rating after approximately 10 d; read-out: Ryegrass, Italian plant response rating (0 to 100 scale, 0 no effect, 100 complete control)
// assign criterion met if pest or weed control at 125 g/ha falls strictly below 20%, else criterion not met (ties count as criterion not met)

Look over these answered cases.
inputSmiles	answerLabel
Cc1cc(C)cc([C@H]2CNC(=O)[C@@H]2C(=O)Nc2ccccc2F)c1	criterion met
Cc1c(F)ccc([C@H]2CN(C)C(=O)[C@@H]2C(=O)Nc2ccc(F)cc2F)c1F	criterion not met
COc1c(F)ccc([C@H]2CNC(=O)[C@@H]2C(=O)Nc2ccc(F)cc2F)c1Cl	criterion met
COc1c(F)ccc([C@H]2CN(C)C(=O)[C@@H]2C(=O)Nc2ccccc2F)c1Cl	criterion not met
CN1C[C@H](c2cccc(F)c2)[C@@H](C(=O)Nc2ccccc2S(C)(=O)=O)C1=O	criterion not met
O=C1NC[C@H](c2cc(F)c(C(F)(F)F)c(F)c2)[C@H]1C(=O)Nc1ccccc1F	criterion not met

Asked: Identify whether the compound CN1C[C@H](c2cc(F)cc(F)c2)[C@@H](C(=O)Nc2ccc(C(F)(F)F)cn2)C1=O records pest or weed control at 125 g/ha below 20%.
Given back: criterion met
